Entry source: PubChem BioAssay (NCI)

Tested on: HL-60(TB) leukemia
Test: NCI tumour cell line growth inhibition, 48 h
READOUT_LABEL: TGI (µM)
Write down the numeric answer in µM and omit the unit.

Give TGI; test system HL-60(TB) leukemia; molecule Clc1ccc2c(NCCCN3CCN(c4nc(-n5ccnc5)nc5ccccc45)CC3)ccnc2c1 5.18

Answer with TGI of CCOC(=O)C(=Cc1ccc(Br)cc1)C(=O)OCC measured for HL-60(TB) leukemia. 7.53

====

Reported TGI by item:
Test system: SW-620 colon
Assay: NCI tumour cell line growth inhibition, 48 h

[
  {
    "COMPOUND": "c1ccc2cc3n[se]nc3cc2c1",
    "TGI": "> 100 µM"
  },
  {
    "COMPOUND": "COC(=O)[C@]1(c2cc3ccccc3[nH]2)CC2CN(CC(=O)N(C)OC)C1C1OC(C)(C)OC21 (stereo partly drawn)",
    "TGI": "> 100 µM"
  }
]

Respond only with TGI recorded for O=[N+]([O-])c1ccc(N(CCO)CCO)c2c1no[n+]2[O-] 3.71 µM

Recall and state the measured TGI for COc1ccc(-c2nc3ccc(C)cc3o2)c(OC)c1 . > 86 µM

// Input: CCOC(=O)c1c(C)c2c(n1C)CSc1cc(S(=O)(=O)c3ccccc3)c(=O)[nH]c1-2 . Output its TGI only. > 100 µM

Entry COC(=O)/C(=C/N1CCN(C(=O)c2ccco2)C1=S)C(C)=O needs its TGI filled in; supply it. 12.5 µM

Quote TGI reported for COC(=O)C(C(=O)C(=O)Nc1ccccc1OC)c1csc(-n2nc(-c3ccccc3)cc2-c2ccccc2)n1 (stereo not drawn) please. > 100 µM

For the compound CCCCc1ccc(Nc2nc(Cl)c3[nH]cnc3n2)cc1 , report TGI. 37.4 µM

Recall and state the measured TGI for NC(N)=NC(N)=NCCc1ccccc1 . > 100 µM

Quick one: give measured TGI for O=C(Oc1ccc([N+](=O)[O-])cc1)N1CCC(C(O)(c2ccc3c(c2)OCO3)c2ccc3c(c2)OCO3)CC1 > 100 µM

Give TGI for COCCOC(C)C(/C=N/NC(N)=S)=N/NC(N)=S (stereo not drawn) > 100 µM

Give TGI for the following compound: Cc1ccc(C(=O)/C=C/c2ccccc2Cl)cc1 27 µM

Note TGI for the compound shown: C#C[C@]1(O)CC[C@H]2[C@@H]3CC=C4c5nc(Nc6ccc(OC)cc6OC)sc5CC[C@]4(C)[C@H]3CC[C@@]21C 3.71 µM

====

Test system: A498 renal
Test: NCI tumour cell line growth inhibition, 48 h
READOUT_LABEL: TGI

[
  {
    "COMPOUND": "COCCOC(C)C(/C=N/NC(N)=S)=N/NC(N)=S (stereo not drawn)",
    "TARGET_OR_SYSTEM": "A498 renal",
    "EXPERIMENTAL_VALUE": "> 100 µM"
  },
  {
    "COMPOUND": "OCCOCCO[P+]1(OCCOCCO)n2c3ccc2C(c2ccccc2)=C2C=CC(=N2)C(c2ccccc2)=c2ccc(n21)=C(c1ccccc1)C1=NC(=C3c2ccccc2)C=C1",
    "TARGET_OR_SYSTEM": "A498 renal",
    "EXPERIMENTAL_VALUE": "> 100 µM"
  }
]

// next entry
Report its TGI with A498 renal as the test system: COC(=O)C(C(=O)C(=O)Nc1ccccc1OC)c1csc(-n2nc(-c3ccccc3)cc2-c2ccccc2)n1 (stereo not drawn) > 100 µM
